# TARGET UNDER TEST: human C5 protein (human, UniProt P01031 19-673; P01031 678-1676)
# TEST DETAILS: cell-based or functional assay
Positions of bridges follow the written chain, without caps; N, C: chain ends. Non-standard residues stand in square brackets, D forms with d. Primed or numbered codes have the meaning given here. No end group written: not given here. mXylyl(3) = bridging moiety between the two residues given in brackets; mXylyl(5) = bridging moiety between the two residues (meta-xylyl); mXylyl = bridging moiety between residues (mXylyl(i,j)); Trp(7-aza) = N[C@@H](Cc1c[nH]c2ncccc12)C(=O)O; NMePhe(4-F) = CN[C@@H](Cc1ccc(F)cc1)C(=O)O; Tiq1c(1S) = O=C(O)[C@H]1NCCc2ccccc21; Phg = N[C@H](C(=O)O)c1ccccc1; NMeS = CN[C@@H](CO)C(=O)O; Nva = CCC[C@H](N)C(=O)O; Sar = CNCC(=O)O
The entries below are paired with their reported Avg. IC50, human hemolysis assay (complete human sera).

Worked set:
{"columns": ["BINDER", "MEASUREMENT"],
 "data": [
  ["Ac-[Nva]C[Phg]T[Trp(7-aza)]EA[NMeS]HC[Nva]-NH2 (linker 2-10 via mXylyl) [R3036]", "> 50 µM"],
  ["Ac-[Nva]C[Tiq1c(1S)]T[Trp(7-aza)]EY[NMeS]HC[Nva]-NH2 (linker 2-10 via mXylyl(3)) [R3122]", "> 50 µM"]
]}

# evaluate next
Query :: Look up Avg. IC50, human hemolysis assay (complete human sera) for this binder: [Nva]CY[NMeS][Phg][NMePhe(4-F)][NMeS]H[NMePhe(4-F)][Sar]C-NH2 (linker 2-11 via mXylyl(5)) [R3051]
Result :: > 100 µM
